# System: Hs-578T
# test-description: NCI tumour cell line growth inhibition, 48 h
The source made the active and inactive calls. Rule as the data show it: active = GI50 up to about 1.1 µM and inactive = higher.
Respond using exactly one of the listed classes: Y (active), N (inactive)

**Query** Short answer needed: outcome of this test for NS(=O)(=O)c1ccc(NNc2c3ccccc3nc3c(C(=O)Nc4ccc(S(N)(=O)=O)cc4)cccc23)cc1 ?
**Result** N

**Query** Short answer needed: outcome of this test for C=C1C(=O)O[C@@H]2[C@H]1C[C@H](I)[C@@]1(C)CC[C@H](O1)[C@](C)(I)CCCC(C)[C@@H]2O (some centres undefined) ?
**Result** N

**Query** Short answer needed: outcome of this test for CC(C)(C)CNCCCNc1ccc(Cl)cc1 ?
**Result** N

**Query** Short answer needed: outcome of this test for C=C1C[C@@H]2CC[C@@]34CC5O[C@H]6C(O[C@H]7CC[C@H](CC(=O)O[C@@H]8[C@@H](C)[C@@H]9O[C@@H]%10C[C@]%11(C[C@@H]%12O[C@]%13(C[C@H](C)[C@@H]%14O[C@@H]%15CC(C(COC(C)=O)OC(C)=O)O[C@@H]%15C[C@@H]%14O%13)C[C@H](C)[C@@H]%12O%11)O[C@@H]%10C[C@@H]9O[C@H]8CC8O[C@@H](CC[C@@H]1O2)C[C@@H](C)C8(O)CO)O[C@@H]7[C@@H]6O3)[C@H]5O4 (some centres undefined) ?
**Result** Y
